# Test system: MS2 coat protein
# Assay Details: apparent KD of MS2 coat protein; designed switch direction (-1 OFF switch, 1 ON switch): -1; higher = weaker reporter binding
# Experimental Conditions: input ligand: FMN 200 uM
Readout Label: apparent KD of MS2 coat protein (nM)
Give just the number in nM; leave the unit off.

Known results for sequences:
Sequence Record	Readout Label	Number
ACAUGUCAUCUAGGAUAUUGGACACAUGAGGAUCACCCAUGUACCCGGAGGCUUUACUAUGAGUUCGAGAAGGAGAUGUACAUG [Ex NG2 #72] (Eterna round: R96, puzzle: Exclusion NG 2)	apparent KD of MS2 coat protein	133
UUUUUAUAUGAAGGAUAUACUAAACAUGAGGAUCACCCAUGUGGUGUUGUGAGUGAGAGAGAUAAGUAGAAGGUCAAUUAUUUU [JMF's solution 4] (Eterna round: R96, puzzle: Exclusion NG 2)	apparent KD of MS2 coat protein	348

Query: Give the measured apparent KD of MS2 coat protein of UGAGUGCUGCGAGGAUAUACAUGAGGAUCACCCAUGUAAACGUGUGAGGCUUUGCCUCACACGAUGUAGAAGGCGCAGUACUCU [JL ENG2 1.05] (Eterna round: R96, puzzle: Exclusion NG 2) .
Result: 18.4
